- Assay remarks: in vitro
- Experimental setup: human, Caco-2
- Description: Permeability across apical to basolateral side in human Caco2 cells measured up to 2 hrs by LC-MS/MS analysis or scintillation counting method
Observable: Papp A→B at 2 h (×10⁻⁶ cm/s)

1) O=P1(c2ccc(C(F)(F)F)cc2)CCCC1 | 69
2) CP(C)(=O)c1ccc(C(F)(F)F)cc1 | 82
3) CCOP(=O)(OCC)c1ccc(C(F)(F)F)cc1 | 95
4) O=P1(c2ccc(C(F)(F)F)cc2)NCCCN1 | 42
5) CN1CCP(=O)(c2ccc(C(F)(F)F)cc2)CC1 | 52
6) CCP(=O)(CC)c1ccc(C(F)(F)F)cc1 | 88
7) CN=S(=O)(c1ccc(C(F)(F)F)cc1)N(C)C (stereo unspecified) | 70
8) O=P1(c2ccc(C(F)(F)F)cc2)CCC1 | 78
9) CNS(=O)(=O)c1ccc(C(F)(F)F)cc1 | 36
10) CC(C)P(=O)(c1ccc(C(F)(F)F)cc1)C(C)C | 110
11) CNC(=O)c1ccc(C(F)(F)F)cc1 | 56
12) COP(=O)(OC)c1ccc(C(F)(F)F)cc1 | 85
13) Cc1ccc(NC(=O)c2ccc(C(=O)N(C)C)cc2)cc1Nc1nccc(-c2cccnc2)n1 | 19
14) CCOP(C)(=O)c1ccc(C(F)(F)F)cc1 (stereo unspecified) | 69
15) O=P1(c2ccc(C(F)(F)F)cc2)CCCCC1 | 49
16) O=C(O)c1ccc(C(F)(F)F)cc1 | 15
17) CC(C)(C)NC(=O)c1ccc(C(F)(F)F)cc1 | 56

###

# solubility thermodynamic at 24 h per entry
- Assay remarks: physchem
- Experimental setup: pH 6.8 buffer
Observable: solubility thermodynamic at 24 h

1. CP(=O)(O)c1ccc(C(F)(F)F)cc1 | > 49 µg/mL
2. Cc1ccc(NC(=O)c2ccc(C(=O)N(C)C)cc2)cc1Nc1nccc(-c2cccnc2)n1 | < 1 µg/mL
3. CCOP(=O)(O)c1ccc(C(F)(F)F)cc1 | > 64 µg/mL
4. CCOP(=O)(OCC)c1ccc(C(F)(F)F)cc1 | > 61 µg/mL
5. O=P1(c2ccc(C(F)(F)F)cc2)CCC1 | > 53 µg/mL
6. CN1CCP(=O)(c2ccc(C(F)(F)F)cc2)CC1 | > 66 µg/mL
7. CN(C)S(=O)(=O)c1ccc(C(F)(F)F)cc1 | 47 µg/mL
8. O=P(O)(OCCO)c1ccc(C(F)(F)F)cc1 | > 63 µg/mL
9. COP(=O)(O)c1ccc(C(F)(F)F)cc1 | > 60 µg/mL
10. O=P1(c2ccc(C(F)(F)F)cc2)CCOCC1 | > 65 µg/mL
11. CN1CCCN(C)P1(=O)c1ccc(C(F)(F)F)cc1 | > 68 µg/mL
12. NS(=O)(=O)c1ccc(C(F)(F)F)cc1 | > 48 µg/mL
13. CCP(=O)(CC)c1ccc(C(F)(F)F)cc1 | > 60 µg/mL
14. O=P1(c2ccc(C(F)(F)F)cc2)CCNCC1 | > 61 µg/mL
15. Cc1ccc(NC(=O)c2ccc(P(C)(C)=O)cc2)cc1Nc1nccc(-c2cccnc2)n1 | 77 µg/mL
16. O=P(O)(O)c1ccc(C(F)(F)F)cc1 | > 54 µg/mL
17. CC(C)OP(=O)(OC(C)C)c1ccc(C(F)(F)F)cc1 | 29 µg/mL
18. CN=S(=O)(c1ccc(C(F)(F)F)cc1)N(C)C (stereo not given) | 49 µg/mL
19. Cc1ccc(NC(=O)c2ccc(P(C)(=O)O)cc2)cc1Nc1nccc(-c2cccnc2)n1 | > 115 µg/mL
20. CN1CCCOP1(=O)c1ccc(C(F)(F)F)cc1 (stereo not given) | 53 µg/mL
21. CCOP(=O)(OCC)c1ccc(C(=O)Nc2ccc(C)c(Nc3nccc(-c4cccnc4)n3)c2)cc1 | 1 µg/mL
22. CP(C)(=O)c1ccc(C(F)(F)F)cc1 | > 52 µg/mL
23. CNC(=O)c1ccc(C(=O)Nc2ccc(C)c(Nc3nccc(-c4cccnc4)n3)c2)cc1 | < 1 µg/mL
24. NC(=O)c1ccc(C(F)(F)F)cc1 | > 44 µg/mL
25. CC(C)P(=O)(c1ccc(C(F)(F)F)cc1)C(C)C | > 61 µg/mL

Source: ChEMBL document CHEMBL4616670
